Value source: paper PMC12298351

# Test system: A498
# condition info: A498, Renal
Catalogue of compounds with associated Total growth inhibition (TGI)
Output spec: scalar in µM, unitless text.

Entry C=C1CCC2C3(C)COC(c4cn(-c5ccccc5)nc4-c4ccc(F)cc4)OC3CCC2(C)C1CC=C1C(=O)OCC1O (stereo not shown) ; Total growth inhibition (TGI) = 11.5

response.value for C=C1CCC2C3(C)COC(c4cn(-c5ccccc5)nc4-c4ccc(C)cc4)OC3CCC2(C)C1CC=C1C(=O)OCC1O (stereo not shown) (field: Total growth inhibition (TGI)) = 15.8

Total growth inhibition (TGI) for C=C1CCC2C3(C)COC(c4cn(-c5ccccc5)nc4-c4ccc(Br)cc4)OC3CCC2(C)C1CC=C1C(=O)OCC1O (stereo not shown) is 1.66

Could you now consider this next compound?
// recorded Total growth inhibition (TGI) for C=C1CCC2C3(C)COC(c4cn(-c5ccccc5)nc4-c4cccc([N+](=O)[O-])c4)OC3CCC2(C)C1CC=C1C(=O)OCC1O (stereo not shown) : 45.4

---

# Tested on: DU-145
# condition info: read-out: 50% lethal concentration (LC50); DU-145, Prostate
Label 1 when CC50 is strictly below 9 µM; otherwise label -1.

# example entries with known answers
Please determine if C=C1CCC2C3(C)COC(c4cn(-c5ccccc5)nc4-c4cccc(Cl)c4)OC3CCC2(C)C1CC=C1C(=O)OCC1O (centres unmarked) [1d] is below 9 µM in terms of CC50. 1

Is it true that CC50 reported for C=C1CCC2C3(C)COC(c4cn(-c5ccccc5)nc4-c4ccc(OC)cc4)OC3CCC2(C)C1CC=C1C(=O)OCC1O (centres unmarked) [1j] is less than 9 µM? -1

Is 9 µM strictly greater than the molecule's reported CC50? molecule: C=C1CCC2C3(C)COC(c4cn(-c5ccccc5)nc4-c4cccc(Br)c4)OC3CCC2(C)C1CC=C1C(=O)OCC1O (centres unmarked) [1e] -1

Take the molecule C=C1CCC2C3(C)COC(c4cn(-c5ccccc5)nc4-c4cccc([N+](=O)[O-])c4)OC3CCC2(C)C1CC=C1C(=O)OCC1O (centres unmarked) [1b] and say whether its CC50 is less than 9 µM. -1

---
Please state whether CC50 is below 9 µM for C=C1CCC2C3(C)COC(c4cn(-c5ccccc5)nc4-c4ccc(F)cc4)OC3CCC2(C)C1CC=C1C(=O)OCC1O (centres unmarked) [1f] 1

Is it true that CC50 reported for C=C1CCC2C3(C)COC(c4cn(-c5ccccc5)nc4-c4ccc(C)cc4)OC3CCC2(C)C1CC=C1C(=O)OCC1O (centres unmarked) [1i] is less than 9 µM? 1

Strictly below 9 µM: is that where CC50 of C=C1CCC2C3(C)COC(c4cn(-c5ccccc5)nc4-c4ccc(Br)cc4)OC3CCC2(C)C1CC=C1C(=O)OCC1O (centres unmarked) [1h] sits? 1

---

# Test system: UACC-257
# condition info: UACC-257, Melanoma
endpoint name: Total growth inhibition (TGI) (µM)
Write the number in µM without appending the unit.

Sample records with Total growth inhibition (TGI):
For record C=C1CCC2C3(C)COC(c4cn(-c5ccccc5)nc4-c4cccc(F)c4)OC3CCC2(C)C1CC=C1C(=O)OCC1O (stereo not shown) the listed Total growth inhibition (TGI) is 3.87

Record C=C1CCC2C3(C)COC(c4cn(-c5ccccc5)nc4-c4cccc(Cl)c4)OC3CCC2(C)C1CC=C1C(=O)OCC1O (stereo not shown) . Reported Total growth inhibition (TGI): 3.57

Record C=C1CCC2C3(C)COC(c4cn(-c5ccccc5)nc4-c4cccc([N+](=O)[O-])c4)OC3CCC2(C)C1CC=C1C(=O)OCC1O (stereo not shown) . Reported Total growth inhibition (TGI): 3.68

Continuing:
Briefly, Total growth inhibition (TGI) measured for C=C1CCC2C3(C)COC(c4cn(-c5ccccc5)nc4-c4ccc(Br)cc4)OC3CCC2(C)C1CC=C1C(=O)OCC1O (stereo not shown) : 3.35

Looking up C=C1CCC2C3(C)COC(c4cn(-c5ccccc5)nc4-c4ccc(C)cc4)OC3CCC2(C)C1CC=C1C(=O)OCC1O (stereo not shown) , I found its Total growth inhibition (TGI) recorded as 3.47

Entry C=C1CCC2C3(C)COC(c4cn(-c5ccccc5)nc4-c4ccc(Cl)cc4)OC3CCC2(C)C1CC=C1C(=O)OCC1O (stereo not shown) ; Total growth inhibition (TGI) = 3.63

So, C=C1CCC2C3(C)COC(c4cn(-c5ccccc5)nc4-c4ccccc4)OC3CCC2(C)C1CC=C1C(=O)OCC1O (stereo not shown) ? Its Total growth inhibition (TGI) was 3.8

---

System: OVCAR-8 | Read-out: GI50
Numbers only; they are read as nM.

Some entries whose results are on file:
The compound C=C1CCC2C3(C)COC(c4cn(-c5ccccc5)nc4-c4ccc(OC)cc4)OC3CCC2(C)C1CC=C1C(=O)OCC1O (stereo not shown) , when measured on OVCAR-8, yielded GI50 of 1350

// GI50 (OVCAR-8) for C=C1CCC2C3(C)COC(c4cn(-c5ccccc5)nc4-c4ccc(F)cc4)OC3CCC2(C)C1CC=C1C(=O)OCC1O (stereo not shown) = 1480

// assay OVCAR-8, entry C=C1CCC2C3(C)COC(c4cn(-c5ccccc5)nc4-c4ccc(Cl)cc4)OC3CCC2(C)C1CC=C1C(=O)OCC1O (stereo not shown) , GI50 value = 1950

Case C=C1CCC2C3(C)COC(c4cn(-c5ccccc5)nc4-c4ccccc4)OC3CCC2(C)C1CC=C1C(=O)OCC1O (stereo not shown) , OVCAR-8, GI50 recorded as 1810

Entry C=C1CCC2C3(C)COC(c4cn(-c5ccccc5)nc4-c4ccc(C)cc4)OC3CCC2(C)C1CC=C1C(=O)OCC1O (stereo not shown) : GI50 on OVCAR-8 = 1670

The reported GI50 value, OVCAR-8, for C=C1CCC2C3(C)COC(c4cn(-c5ccccc5)nc4-c4cccc(Cl)c4)OC3CCC2(C)C1CC=C1C(=O)OCC1O (stereo not shown) reads 1530

GI50 on OVCAR-8 for C=C1CCC2C3(C)COC(c4cn(-c5ccccc5)nc4-c4cccc([N+](=O)[O-])c4)OC3CCC2(C)C1CC=C1C(=O)OCC1O (stereo not shown) is 1900

The reported GI50 value, OVCAR-8, for C=C1CCC2C3(C)COC(c4cn(-c5ccccc5)nc4-c4ccc(Br)cc4)OC3CCC2(C)C1CC=C1C(=O)OCC1O (stereo not shown) reads 1550

New cases:
Hey, OVCAR-8 data for C=C1CCC2C3(C)COC(c4cn(-c5ccccc5)nc4-c4cccc(F)c4)OC3CCC2(C)C1CC=C1C(=O)OCC1O (stereo not shown) : GI50 came out at 1770

Tested on OVCAR-8, the item C=C1CCC2C3(C)COC(c4cn(-c5ccccc5)nc4-c4cccc(Br)c4)OC3CCC2(C)C1CC=C1C(=O)OCC1O (stereo not shown) showed GI50 equal to 1760

---

# System: EKVX
# condition info: read-out: 50% lethal concentration (LC50), Non-Small Cell Lung
endpoint name: CC50

Reference set (2 entries):
Sample C=C1CCC2C3(C)COC(c4cn(-c5ccccc5)nc4-c4ccc(F)cc4)OC3CCC2(C)C1CC=C1C(=O)OCC1O (stereo not drawn) ; CC50 observed: > 100 µM

Sample C=C1CCC2C3(C)COC(c4cn(-c5ccccc5)nc4-c4ccc(Br)cc4)OC3CCC2(C)C1CC=C1C(=O)OCC1O (stereo not drawn) ; CC50 observed: > 100 µM

Pending compound:
The reported CC50 of the compound C=C1CCC2C3(C)COC(c4cn(-c5ccccc5)nc4-c4cccc(Cl)c4)OC3CCC2(C)C1CC=C1C(=O)OCC1O (stereo not drawn) was > 100 µM

---

compounds and their reported CC50
# Test system: NCI-H226
# condition info: read-out: 50% lethal concentration (LC50); NCI-H226, Non-Small Cell Lung
Answer in µM, number only, no unit symbol.

So, C=C1CCC2C3(C)COC(c4cn(-c5ccccc5)nc4-c4ccc(F)cc4)OC3CCC2(C)C1CC=C1C(=O)OCC1O (stereo not drawn) [1f] ? Its CC50 was 5.75

Here is another compound to look at.
CC50 in this record for C=C1CCC2C3(C)COC(c4cn(-c5ccccc5)nc4-c4ccc(Br)cc4)OC3CCC2(C)C1CC=C1C(=O)OCC1O (stereo not drawn) [1h] : 5.77

---

# Test system: T-47D
# condition info: read-out: 50% lethal concentration (LC50), Breast
endpoint name: CC50

Example entries begin here.
Noted for C=C1CCC2C3(C)COC(c4cn(-c5ccccc5)nc4-c4ccc(C)cc4)OC3CCC2(C)C1CC=C1C(=O)OCC1O (stereo not shown) [1i] : its CC50 reads > 100 µM

Record summary for C=C1CCC2C3(C)COC(c4cn(-c5ccccc5)nc4-c4ccc(Br)cc4)OC3CCC2(C)C1CC=C1C(=O)OCC1O (stereo not shown) [1h] : reported CC50 = 8.33 µM

molecule C=C1CCC2C3(C)COC(c4cn(-c5ccccc5)nc4-c4cccc(Cl)c4)OC3CCC2(C)C1CC=C1C(=O)OCC1O (stereo not shown) [1d] , CC50 observed: > 100 µM

Now consider a different molecule.
// C=C1CCC2C3(C)COC(c4cn(-c5ccccc5)nc4-c4ccc(OC)cc4)OC3CCC2(C)C1CC=C1C(=O)OCC1O (stereo not shown) [1j] : CC50 value = > 100 µM
